Source of measurements: paper PMC6297231

System: MEWO
Experiment: cells
Conditions: Homo sapiens, 6 h, read-out: AZD5991 6h EC50
measured attribute: EC50

Bench note: what EC50 did Cc1c2c(nn1C)CSCc1cc(n(C)n1)CSc1cc(c3ccccc3c1)OCCCc1c(C(=O)O)n(C)c3c-2c(Cl)ccc13 (atropisomer, axis not shown; (Ra)) [(Ra)-7] show?
> 30 µM

* * *

Tested on: H209
Test: cells
Details: Homo sapiens, NCI-H209, 6 h, read-out: AZD5991 6h EC50
pEC50: −log10 of the molar value.
measured attribute: pEC50

Bench note: what pEC50 did Cc1c2c(nn1C)CSCc1cc(n(C)n1)CSc1cc(c3ccccc3c1)OCCCc1c(C(=O)O)n(C)c3c-2c(Cl)ccc13 (atropisomer, axis not shown; (Ra)) [(Ra)-7] show?
< 4.52
